test: in vitro; assay type: cell-based, human; conditions: human, leucocytes, first experimentation; 72 hours; C1 = 2.5 μg/ml; read-out: % of dead cells
Assay readout: cytotoxicity at 72 h (%)

1. COc1cc2c(c(OC)c1OC)-c1ccc(SC)c(=O)cc1C(NC(=O)C13CC4CC(CC(C4)C1)C3)CC2 (single isomer, unassigned) : 9
2. COc1cc2c(c(OC)c1OC)-c1ccc(OC)c(=O)cc1[C@@H](NC(C)=O)CC2 [Colchicine, colchicine, reference compound] : 7

====

test: General toxicity statement (LD50 and toxicity relative to thiocolchicine and colchicine); conditions: in vivo; of the weight of the body of animals
Assay readout: LD50

1. COc1cc2c(c(OC)c1OC)-c1ccc(SC)c(=O)cc1C(NC(=O)C13CC4CC(CC(C4)C1)C3)CC2 (single isomer, unassigned) : ~3000 mg/kg

====

Reported cytotoxicity at 72 h by item:
assay: in vitro; assay type: cell-based, human; details: human, leucocytes, Culture II; 72 hours; C3 = 10 μg/ml; read-out: % of dead cells
Assay readout: cytotoxicity at 72 h (%)

1. COc1cc2c(c(OC)c1OC)-c1ccc(OC)c(=O)cc1[C@@H](NC(C)=O)CC2 [Colchicine, colchicine, reference compound] : 14
2. COc1cc2c(c(OC)c1OC)-c1ccc(SC)c(=O)cc1C(NC(=O)C13CC4CC(CC(C4)C1)C3)CC2 (single isomer, unassigned) : 41

====

test: in vitro; settings: human, leucocytes, % of dead cells (Average of 2 determinations), 48 hours; C2 = 0.1 μg/ml; no PHA
Reported cytotoxicity at 48 h by item:
Assay readout: cytotoxicity at 48 h (%)

1) COc1cc2c(c(OC)c1OC)-c1ccc(OC)c(=O)cc1[C@@H](NC(C)=O)CC2 [Colchicine, colchicine, reference compound] : 93
2) COc1cc2c(c(OC)c1OC)-c1ccc(SC)c(=O)cc1C(NC(=O)C13CC4CC(CC(C4)C1)C3)CC2 (single isomer, unassigned) [Derivative, N-desacetyl-N-adamantoyl-thiocolchicine] : 95

====

experiment: in vitro; conditions: human, leucocytes, % of dead cells (Average of 2 determinations), 6 hours; C6 = 10.0 μg/ml; no PHA
Reported cytotoxicity at 6 h by item:
Assay readout: cytotoxicity at 6 h (%)

1) COc1cc2c(c(OC)c1OC)-c1ccc(OC)c(=O)cc1[C@@H](NC(C)=O)CC2 [Colchicine, colchicine, reference compound] : 1
2) COc1cc2c(c(OC)c1OC)-c1ccc(SC)c(=O)cc1C(NC(=O)C13CC4CC(CC(C4)C1)C3)CC2 (single isomer, unassigned) : 1

====

Experiment: in vitro
Format: cell-based, human
Conditions: human, leucocytes, Culture II; 23 hours; C5 = 30 μg/ml; read-out: % of dead cells
Method: The cytotoxicity has been investigated on human leucocytes by means of the viability test with Trypan blue. a. […] After 3, 42, 68 and 72 hours of incubation a sample of each culture was contacted by a drop of Trypan blue and laid on a slide of a microscope. […] The results expressed as a rate in per cent are shown in the accompanying table 8. […] The percentage of dead cells was determined after different numbers of hours of incubation.
Assay readout: cytotoxicity at 23 h (%)

1. COc1cc2c(c(OC)c1OC)-c1ccc(SC)c(=O)cc1C(NC(=O)C13CC4CC(CC(C4)C1)C3)CC2 (single isomer, unassigned) [Derivative, N-desacetyl-N-adamantoyl-thiocolchicine] : 16
2. COc1cc2c(c(OC)c1OC)-c1ccc(OC)c(=O)cc1[C@@H](NC(C)=O)CC2 [Colchicine, colchicine, reference compound] : 5

====

Reported cytotoxicity at 46 h by item:
Assay: in vitro
Assay type: cell-based, human
Settings: human, leucocytes, Culture II; 46 hours; C5 = 30 μg/ml; read-out: % of dead cells
Experimental: The cytotoxicity has been investigated on human leucocytes by means of the viability test with Trypan blue. a. […] After 3, 42, 68 and 72 hours of incubation a sample of each culture was contacted by a drop of Trypan blue and laid on a slide of a microscope. […] The results expressed as a rate in per cent are shown in the accompanying table 8. […] The percentage of dead cells was determined after different numbers of hours of incubation.
Assay readout: cytotoxicity at 46 h (%)

1) COc1cc2c(c(OC)c1OC)-c1ccc(OC)c(=O)cc1[C@@H](NC(C)=O)CC2 [Colchicine, colchicine, reference compound] : 11
2) COc1cc2c(c(OC)c1OC)-c1ccc(SC)c(=O)cc1C(NC(=O)C13CC4CC(CC(C4)C1)C3)CC2 (single isomer, unassigned) : 22

Every entry's value here was drawn from patent US3997506A.
